- system.name: Proteasome subunit beta (Trypanosoma cruzi) (UniProt O96673)
- Sequence (O96673 as listed by the source): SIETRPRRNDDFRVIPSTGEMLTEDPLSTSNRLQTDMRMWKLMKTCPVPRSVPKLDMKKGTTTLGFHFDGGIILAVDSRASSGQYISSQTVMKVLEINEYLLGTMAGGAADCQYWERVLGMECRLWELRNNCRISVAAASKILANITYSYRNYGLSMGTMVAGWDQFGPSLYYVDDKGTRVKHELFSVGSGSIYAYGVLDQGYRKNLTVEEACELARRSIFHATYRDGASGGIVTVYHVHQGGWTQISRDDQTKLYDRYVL
- experiment.description: Trypanosoma cruzi proteasome chymotrypsin-like activity (TcProtChymo) assay.
- Assay type: functional
- Design: scale not given: in the data most compounds retested in dose-response had high values
- condition.set: 9.37 µM
Percent Effect: recorded values
Reply numerically in %, unit not repeated.

Below, 4 compounds whose answers are already recorded.
{"compound": "Cc1nn(C)cc1CN(C)Cc1cc2c(cc1OC(F)F)OCO2", "system.name": "Proteasome subunit beta (Trypanosoma cruzi) (UniProt O96673)", "Percent Effect (%)": -3.18}
{"compound": "COc1ccc(C(O)CNC(=O)NCc2csc(C)n2)cc1 (centres undefined)", "system.name": "Proteasome subunit beta (Trypanosoma cruzi) (UniProt O96673)", "Percent Effect (%)": 19.6}
{"compound": "CCc1nc(C2CCCN(C(=O)c3ccc(OC(C)C)nc3)C2)no1 (centres undefined)", "system.name": "Proteasome subunit beta (Trypanosoma cruzi) (UniProt O96673)", "Percent Effect (%)": 1.05}
{"compound": "Cc1nc(C2CCCN(C(=O)CO)C2)cc(N2CCOCC2)n1 (centres undefined)", "system.name": "Proteasome subunit beta (Trypanosoma cruzi) (UniProt O96673)", "Percent Effect (%)": 13.7}

Qu. // Percent Effect lookup, key: Cc1nc(NC2CCCC2)cc(C2CCN2C(=O)c2ccccc2)n1 (centres undefined)
Ans. 6.08

The measured values listed here are drawn from ChEMBL document CHEMBL3988442.
